Catalogue of glycan array binding signal (z-score) values
- assay_target: Neu5Ac(a2-3)Gal
- assay_remarks: glycan array binding signal (z-score within array); higher = stronger binding
- experimental_parameters: glycan notation: IUPAC condensed, linker removed
Only a selection was taken, and the strongest signals are over-represented in it overall.

binder	glycan array binding signal (z-score)
ConA (Canavalia ensiformis), P02866 (protein) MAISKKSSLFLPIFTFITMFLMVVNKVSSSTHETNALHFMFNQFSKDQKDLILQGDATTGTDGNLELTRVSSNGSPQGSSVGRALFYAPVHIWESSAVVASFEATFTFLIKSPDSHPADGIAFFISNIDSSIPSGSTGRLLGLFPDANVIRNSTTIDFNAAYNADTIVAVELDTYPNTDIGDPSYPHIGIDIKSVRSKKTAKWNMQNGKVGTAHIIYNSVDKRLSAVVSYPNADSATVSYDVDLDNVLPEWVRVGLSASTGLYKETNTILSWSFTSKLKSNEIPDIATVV	-0.283
RfpC (Mycobacterium tuberculosum), O07747 (protein) MHHHHHHSSGRENLYFQGHMASKSAMAAGLVTASMSLSTAVAHAGPSPNWDAVAQCESGGNWAANTGNGKYGGLQFKPATWAAFGGVGNPAAASREQQIAVANRVLAEQGLDAWPTCGAASGLPIALWSKPAQGIKGS	0.641
F17-L (Escherichia coli) (protein) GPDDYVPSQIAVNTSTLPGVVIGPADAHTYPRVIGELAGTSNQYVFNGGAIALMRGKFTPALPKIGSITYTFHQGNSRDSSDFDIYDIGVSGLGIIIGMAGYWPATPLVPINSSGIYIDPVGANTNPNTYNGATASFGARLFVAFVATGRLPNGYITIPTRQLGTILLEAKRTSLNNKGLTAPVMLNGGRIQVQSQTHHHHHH	-0.099
Als3-41 (Candida albicans) (protein) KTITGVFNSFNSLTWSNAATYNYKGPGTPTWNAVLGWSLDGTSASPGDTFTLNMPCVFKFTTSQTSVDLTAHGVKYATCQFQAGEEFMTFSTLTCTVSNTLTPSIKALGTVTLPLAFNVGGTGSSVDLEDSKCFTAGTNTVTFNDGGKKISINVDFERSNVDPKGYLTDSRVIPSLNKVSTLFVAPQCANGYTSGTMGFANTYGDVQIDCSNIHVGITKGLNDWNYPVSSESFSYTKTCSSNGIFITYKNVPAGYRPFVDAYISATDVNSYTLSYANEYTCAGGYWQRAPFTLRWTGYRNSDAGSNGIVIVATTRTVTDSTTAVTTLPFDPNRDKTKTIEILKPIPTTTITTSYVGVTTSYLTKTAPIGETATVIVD	-0.322
PGP3 (Chlamydia trachomatis), P0CE18 (protein) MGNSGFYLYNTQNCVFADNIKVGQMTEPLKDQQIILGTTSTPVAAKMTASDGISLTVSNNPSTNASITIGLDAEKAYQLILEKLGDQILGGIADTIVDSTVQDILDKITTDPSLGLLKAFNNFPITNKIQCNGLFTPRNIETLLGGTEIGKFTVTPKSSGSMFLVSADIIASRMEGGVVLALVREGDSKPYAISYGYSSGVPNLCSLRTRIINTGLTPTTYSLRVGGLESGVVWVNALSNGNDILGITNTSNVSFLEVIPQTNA	0.478
